assay: soluble on expression in E. coli; label from the status in PepcDB or PDB records

# seq, soluble on expression in E. coli
measured = [
    ("MSLKRVLAAEYVRMSTEHQKYSLDNQSEYIREYSLRNNITIIHTYNDAGKSGLNISGRPGLKALLDDVINKKITISAILVYDVSRFGRFQDADEAGHYSHLLRKNGVKIIYCAEPFSEEHPEMFMLGLSFSRHGAASYSRNLSEKVFLGQVNLIKRGYHQGGVAGYGLRRLLIDEHEGHHHHHH", "not soluble"),
    ("MGQSLPLHLLKYPSKFSINIYAAPVSDAREMALGSKDIVFVGSRSAGKVYAVIPDKKNSHGTRVLTIASGLNMPNGVAFHKGALYVAEIGRILRFDNIESNLNNPPEPVVVTTKLPKEKAHGWRFISFGPDDKLYIGIGAPCNVCLMEDPRYATIMRMNTYGQDLEIYARGIRNTVGFDWDPLHHNLWFTDNGRDWLGDNLPPDELNVAPRKGMDFGFPYCYGKSTVDPVYGKIHSCSEFTPAVFEFPAHVAPLGMSFYTGKLFPSNYWGQIFISEHGSWNRSHKIGYQVTTVKIKNNHVTEVKPFISGWLQGEKAWGRPVDTLVMPDGSLLISDDYANVIYRVSYQLEHHHHHH", "not soluble"),
]

###

assay: soluble on expression in E. coli; label from the status in PepcDB or PDB records
reportedProperty: soluble on expression in E. coli

Would you please look over these solved cases?
# seq, soluble on expression in E. coli
rows = [
    ("MSLSPEGVNGNRCSESFPLLEKYRIGKVIGDGNFAVVKECVDRYTGKEFALKIIDKAKCCGKEHLIENEVSILRRVKHPNIIMLVEEMETATDLFLVMELVKGGDLFDAITSSTKYTERDGSAMVYNLANALRYLHSLSIVHRDIKPENLLVCEYPDGTKSLKLGDFGLATVVEGPLYTVCGTPTYVAPEIIAETGYGLKVDVWAAGVITYILLCGFPPFRSENNLQEDLFDQILAGKLEFPAPYWDNITDSAKELISQMLQVNVEARCTAGEILSHPWVSDDASQENNMQAEVTGKLKQHFNNALPKQNSTTTGVSVIMNTALDKEGQIFCSKLCQDSSRPSREGHHHHHH", "not soluble"),
    ("MGSDKIHHHHHHMEALRRRIETQVMSLTGLALGQLDLESPKGDPGLFGPHSISWRVHGDFPSMLVGGISALMLQLLHPLALAGVWDHSNFREDLLGRLRRTSQFISGTTFGATGDAEWLIDKVRTIHLQVTGTAPDGRPYAASDPDLLTWVHVAEVSRFLAAHLRYRNPRLPRAEQDAYYNEIALIAERLGARDVPRSCQQVEDYLQHIRPQLHCDARSHEVIRILLDAPAPSRLAQPVGKLMLHAGIDLLPGWAQALLGLQHGPLQQRLIRLGLRRTAPVLRWAMRDGSAHRAKRRMGID", "not soluble"),
    ("MSEMQMDCALDLMRRLPPQQIEKNLIDLIDLAPDLCEDLLSSVDQPLKIAKDKEHGKDYLLCDYNRDGDSYRSPWSNSYYPPLEDGQMPSERLRKLEIEANYAFDQYREMYYEGGVSSVYLWDLDHGFAAVILIKKAGDGSKMIRGCWDSIHVVEVQEKTTGRTAHYKLTSTAMLWLQTNKQGSGTMNLGGSLTRQQEQDANVSESSPHIANIGKMVEEMENKIRNTLNEIYFGKTKDIVNGLRSTQSLADQRQQAAMKQDLAAAILRRNVKPESN", "not soluble"),
    ("KVISPTYQASTQVLVHESDGEENSNLSDIQRNLQYSSTFQSIMKSTALMEEVKAELHLSESASSLKGKVVTSSENESEIINVAVQDHDPAKAAEIANTLVNKFEKEVDERMNVQGVHILSEAKASESPMIKPARLRNM", "not soluble"),
    ("MGSDKIHHHHHHMMATSAVEKIDYWQASILKEMELSRAQFTHFAFEKHVHLDYHIGVVCHGGQRYHHRGSEYRLTPGNISTLNPDESHNGQSIADGGYEALVMSLPTSYVQQVGGALNQGELYFSTPILDDPKLRAYFIRLHRQLTLHQANITPLEAETLLLGFISELFYRHGKLRNLPSCQARLSGAQLDNIKQQFHQGLDQEFELEQLALSVDLSKFQFLRQFKAATGMTPHAYLKRLRLEYAKKALMRGDSAISTAYDLGFFDQSHFNKAFKRAFLITPAHFQKRVTP", "not soluble"),
]

Prompt: Suppose we examine the sequence KGMIRPRGLNQQRYVKEVLSNDINFGIGPAGTGKTYLAVACAVDALEREQIRRILLVRPAVEAGEKLGFLPGDLAQKIDPYLRPLYDALYEMLGFEYVAKLIEKQVIEVAPLAYMRGRTLNNSFIILDESQNTTVEQMKMFLTRIGFGSTAVITGDITQVDLPKGTRSGLTHVIDVLKDVPGISFTHFKPKDVVRHPLVQRIVEAYERFDDQLSDGPSGNNG ; what soluble on expression in E. coli value has been reported?
Response: soluble

Prompt: Suppose we examine the sequence MGSSHHHHHHSSGLVPRGSHMLELRLVQGSLLKKVLESIKDLVNDANFDCSSTGFSLQAMDSSHVALVSLLLRSEGFEHYRCDRNLSMGMNLGNMSKMLKCAGNDDIITIKADDGGDTVTFMFESPTQDKIADFEMKLMDIDSEHLGIPDAEYHSIVRMPSNEFSRICKDLSSIGDTVVISVTKEGVKFSTAGDIGTANIVLRQNTTVDKPEDAIVIEMKEPVSLSFALRYMNSFTKATPLSDTVTISLSSELPVVVEYKVAEMGYIRYYLAPKIE ; what soluble on expression in E. coli value has been reported?
Response: soluble

Prompt: Suppose we examine the sequence MANANPFARIADRYDGTPPRLRPPLVTQAVGEVIPFVDTAGCFVEAYTPRRVAVRLDNEERLHNHLGGLHAAALALLAETATGLVVALNVPDGSSPLLRTMDISFENFARDAVQAEATLTDAETSQVRSRPLGQIAVDVALTAPDDDTTLVAGTLTWAWVPEARLVDEGERLEHHHHHH ; what soluble on expression in E. coli value has been reported?
Response: not soluble

Prompt: Suppose we examine the sequence SENLTMNIDSTKTIQGTILPVLDFKTEKENVFTFKNTANLNLLIKHGQVINLINKLEFSTYGNKVTVSGGYVHTEYRYLLHHVFEVYPYVESQWAESRGMKYKVSTGLQSRYR ; what soluble on expression in E. coli value has been reported?
Response: not soluble

Prompt: Suppose we examine the sequence MRRFLTLTVALGFLSACEVSDPGPVAPLPKVPDSPPMSASAAQSAFASVSARVRPVAVRECQQRTQGANCDFKIQIDPDPKAPVNAYQTVGKNGQPLIIFTRSMIATARNADELAFVMGHEAAHHIRGHLARQNASAIAGAVILGGLVGLAGGGASTIDAATQIGASVGARTYSKEYELEADELGTVITHKAGYNPLVGAHFFSRIPDPGDRFLGSHPPNAARIQTVQRTAGSLGLTQLEHHHHHH ; what soluble on expression in E. coli value has been reported?
Response: not soluble

Prompt: Suppose we examine the sequence MSLTNSSKSFTKFMAASAVFTMGFLSVPTAGAEQTNQIANKPQAIQWHTNLTNERFTTIAHRGASGYAPEHTFQAYDKSHNELKASYIEIDLQRTKDGHLVAMHDETVNRTTNGHGKVEDYTLDELKQLDAGSWFNKKYPKYARASYKNAKVPTLDEILERYGPNANYYIETKSPDVYPGMEEQLLASLKKHHLLNNNKLKNGHVMIQSFSDESLKKIHRQNKHVPLVKLVDKGELQQFNDQRLKEIRSYAIGLGPDYTDLTEQNTHHLKDLGFIVHPYTVNEKADMLRLNKYGVDGVFTNFADKYKEVIKEGHHHHHH ; what soluble on expression in E. coli value has been reported?
Response: soluble

Prompt: Suppose we examine the sequence GPGSMASVSPSETGGTLITFLQQLRGTLVEIELKNASIVSGEIAYVDANMNTYMSHAKITSKGKNPVEVEEYMVRGSTIRYIIMPESLNTYDILKQASTKKNGASKK ; what soluble on expression in E. coli value has been reported?
Response: soluble
